# tgt: human TRPA1 channel (Homo sapiens, UniProt O75762)
# Construct: expressed in transfected cells; host or cells: CHO cells
# Sequence (O75762 whole entry): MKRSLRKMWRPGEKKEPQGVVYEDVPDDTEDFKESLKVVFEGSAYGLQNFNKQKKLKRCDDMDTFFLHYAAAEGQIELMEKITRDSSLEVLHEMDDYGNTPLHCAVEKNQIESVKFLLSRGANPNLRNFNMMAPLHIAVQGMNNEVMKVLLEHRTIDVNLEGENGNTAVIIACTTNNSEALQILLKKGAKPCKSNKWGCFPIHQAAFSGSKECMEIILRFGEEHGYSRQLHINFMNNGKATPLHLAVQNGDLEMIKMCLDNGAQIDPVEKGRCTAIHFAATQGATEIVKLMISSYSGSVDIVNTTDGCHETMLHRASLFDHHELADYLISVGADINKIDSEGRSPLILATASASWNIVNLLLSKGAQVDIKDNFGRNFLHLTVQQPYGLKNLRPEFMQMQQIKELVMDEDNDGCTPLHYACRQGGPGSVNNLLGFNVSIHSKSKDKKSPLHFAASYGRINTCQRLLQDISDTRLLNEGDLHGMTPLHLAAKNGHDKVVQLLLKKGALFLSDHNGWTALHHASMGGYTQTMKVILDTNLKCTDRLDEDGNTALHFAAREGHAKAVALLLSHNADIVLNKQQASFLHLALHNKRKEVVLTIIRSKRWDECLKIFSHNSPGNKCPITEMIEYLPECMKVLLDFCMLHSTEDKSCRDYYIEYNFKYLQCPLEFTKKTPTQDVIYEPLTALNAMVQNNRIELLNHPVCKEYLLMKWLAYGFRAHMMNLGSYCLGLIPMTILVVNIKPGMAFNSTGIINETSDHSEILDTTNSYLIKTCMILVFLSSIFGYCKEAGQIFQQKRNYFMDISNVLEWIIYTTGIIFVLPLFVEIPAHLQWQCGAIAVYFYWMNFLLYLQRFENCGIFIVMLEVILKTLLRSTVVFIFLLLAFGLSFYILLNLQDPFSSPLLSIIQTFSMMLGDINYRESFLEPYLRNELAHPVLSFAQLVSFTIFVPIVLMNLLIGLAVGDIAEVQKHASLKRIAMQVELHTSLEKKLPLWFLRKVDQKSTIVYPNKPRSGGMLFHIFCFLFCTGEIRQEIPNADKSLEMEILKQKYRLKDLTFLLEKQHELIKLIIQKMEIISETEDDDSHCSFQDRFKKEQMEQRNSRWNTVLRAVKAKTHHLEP
# experimental-protocol: ScreenPatch assay (IonWorks Barracuda), agonist mode, TRPA1 expressed in CHO cells
# Format: cell-based
# condition-context: in presence of 1 μM CBD + THC; read-out: EC50, CBC CRC
pEC50: −log10 of the molar value. Where “and” joins values, the source holds several entries; their conditions need not be identical. Equal values may be shown once.
readout-label: pEC50

{"columns": ["compound", "readout-label", "result"],
 "data": [
  ["CCCCCc1cc(O)c2c(c1)OC(C)(CCC=C(C)C)C=C2 (stereo not shown)", "pEC50", "4.59 and 4.58"]
]}
